Molecular target: Torsin-1A-interacting protein 1 (Homo sapiens)
Test: LAP1 binders from COS7 cell lysate, primary screen, small-molecule microarray, 635/667 nm fluorescence (AID 1116)
Details: COS7-hLAP1 lysate binding, 635 nm fluorescence, higher = more signal
Label Satisfied when composite z-score is at or above 0.3; otherwise label Not satisfied.

CCOC(=O)[C@H](CC(C)C)NC(=O)CCC1CC(OC(=O)NCc2ccc3c(c2)OCO3)CC2(CCCC(COC(=O)NCCCN3CCCC3=O)O2)O1 (stereo partly drawn); Not satisfied
CO[C@H]1COC(=O)CC=C[C@H](C)[C@@H](OC)COC(=O)[C@@H](C)NC(=O)CC=C[C@@H]1C; Not satisfied
COc1cccc([C@@H]2Oc3ccc(OC)cc3C(=O)[C@H]2O)c1; Not satisfied
O=C1C[C@@H](O)[C@@H](O)[C@@H]2[C@@H]3C(=O)N(Cc4ccc5c(c4)OCO5)C(=O)[C@@H]3CC[C@H]12; Satisfied
Cc1ccc(S(=O)(=O)N[C@H]2COC(=O)CC=C[C@@H](C)COC(=O)CC=C[C@@H]2C)cc1; Not satisfied

Record "Cn1c(=O)n2n(c1=O)[C@H]1[C@H](O)[C@@H]3O[C@@H]3C(=O)[C@H]1CC2" ; criterion: composite z-score no lower than 0.3. Met?
Satisfied

In plain terms: is recorded composite z-score at least 0.3 for "COC(=O)CC=C[C@@H](C)[C@@H](C=NOCC[C@@H]1C=C[C@H](OC(C)=O)[C@@H](COC(C)=O)O1)OC" ?
Satisfied

The reported measurements were obtained from PubChem BioAssay.
